Tested on: Xanthomonas axonopodis pv. citri (Xac)
test details: microbe, parasite or virus in culture
Assay type: cell-based
measurement context: Xanthomonas axonopodis, read-out: Antibacterial activity (inhibition rate) against Xac
Recorded inhibition at 50 µg/mL determines the group label, using I (below 20%), II (20% to below 50%), III (50% or more)

Consider the worked cases shown below.
[[record]]
molecule = "CCOP(=O)(OCC)Oc1ccccc1/C=C/C(=O)/C=C/c1ccc([N+](=O)[O-])cc1 [3j]"
discrete_label = "III"

[[record]]
molecule = "CCOP(=O)(OCC)Oc1ccccc1/C=C/C(=O)/C=C/c1ccccc1Cl [3f]"
discrete_label = "III"

[[record]]
molecule = "CCOP(=O)(OCC)Oc1ccccc1/C=C/C(=O)/C=C/c1cccc(C(F)(F)F)c1 [3q]"
discrete_label = "I"


Record CCOP(=O)(OCC)Oc1ccccc1/C=C/C(=O)/C=C/c1ccc(C)cc1 [3k] — which class?
II

Record COP(=O)(OC)Oc1ccccc1/C=C/C(=O)/C=C/c1ccccc1Cl [3e] — which class?
III

Record COP(=O)(OC)Oc1ccccc1/C=C/C(=O)/C=C/c1ccccc1 [3l] — which class?
II

Record CCOP(=O)(OCC)Oc1ccccc1/C=C/C(=O)/C=C/c1ccc(Br)cc1 [3o] — which class?
II

Record COP(=O)(OC)Oc1ccccc1/C=C/C(=O)/C=C/c1cccc(C(F)(F)F)c1 [3p] — which class?
I

Record COP(=O)(OC)Oc1ccccc1/C=C/C(=O)/C=C/c1ccc(Br)cc1 [3n] — which class?
I

Record CCOP(=O)(OCC)Oc1ccccc1/C=C/C(=O)/C=C/c1ccc(OC)cc1 [3d] — which class?
II

Record CCOP(=O)(OCC)Oc1ccccc1/C=C/C(=O)/C=C/c1ccc(Cl)cc1 [3b] — which class?
III

Record COP(=O)(OC)Oc1ccccc1/C=C/C(=O)/C=C/c1cccc(C)c1 [3r] — which class?
I

Record CCOP(=O)(OCC)Oc1ccccc1/C=C/C(=O)/C=C/c1cccc(C)c1 [3s] — which class?
I

Record COc1ccc(/C=C/C(=O)/C=C/c2ccccc2OP(=O)(OC)OC)cc1 [3c] — which class?
III

Record CCOP(=O)(OCC)Oc1ccccc1/C=C/C(=O)/C=C/c1ccccc1 [3m] — which class?
I

* * *

Test system: Xanthomonas axonopodis pv. citri (Xac)
test details: microbe, parasite or virus in culture
Type: cell-based
measurement context: Xanthomonas axonopodis, read-out: Antibacterial activity (inhibition rate) against Xac
test readout: inhibition at 50 µg/mL

Recorded inhibition at 50 µg/mL, per entry:
[[record]]
molecule = "COP(=O)(OC)Oc1ccccc1/C=C/C(=O)/C=C/c1ccc([N+](=O)[O-])cc1 [3i]"
test_readout = "inhibition at 50 µg/mL"
readout_value = "50.8%"

[[record]]
molecule = "COP(=O)(OC)Oc1ccccc1/C=C/C(=O)/C=C/c1ccc(Cl)cc1 [3a]"
test_readout = "inhibition at 50 µg/mL"
readout_value = "50.6%"


Could you now consider this next molecule?
Query: inhibition at 50 µg/mL; subject: CCOP(=O)(OCC)Oc1ccccc1/C=C/C(=O)/C=C/c1cccc([N+](=O)[O-])c1 [3h]
48.5%
